Biological target: UniProt Q7TQP3
Sequence (Q7TQP3 whole entry): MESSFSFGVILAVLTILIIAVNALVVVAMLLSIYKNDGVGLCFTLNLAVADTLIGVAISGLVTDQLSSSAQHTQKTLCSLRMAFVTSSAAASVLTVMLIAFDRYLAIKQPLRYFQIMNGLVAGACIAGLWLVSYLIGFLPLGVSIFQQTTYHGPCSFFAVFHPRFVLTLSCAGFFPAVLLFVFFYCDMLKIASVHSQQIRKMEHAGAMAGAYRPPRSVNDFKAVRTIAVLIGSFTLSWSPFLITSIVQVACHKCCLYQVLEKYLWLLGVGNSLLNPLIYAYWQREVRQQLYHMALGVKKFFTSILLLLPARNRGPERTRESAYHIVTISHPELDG
pIC50: −log10 of the molar value.
Assign class by pIC50: not lower than 7 means 1 (yes); lower than 7 means 0 (no).

> print(dat)
                                   molecule  assigned.category
1  CC(C)(C)OC(=O)N1C2CCC1CN(c1ncc(OCc3ccncc3C#N)cn1)C2            1 (yes)
2  CC(C)c1nc(N2CCN(c3ncc(OCc4ccncc4C#N)cn3)CC2)no1             0 (no)
3  N#Cc1cnccc1COc1cnc(N2CCN(C(=O)OCC(F)(F)F)CC2)nc1             0 (no)
4  N#Cc1cnccc1COc1cnc(N2CCN(C(=O)OC3CC(F)(F)C3(F)F)CC2)nc1 (stereo not given)             0 (no)
5  C[C@@H]1CN(C(=O)OC2CC(F)(F)C2(F)F)CCN1c1ncc(OCc2ccncc2C#N)cn1 (stereo not given in full)             0 (no)
6  CC(C)(C)OC(=O)N1C2CCC1CN(c1ncc(OCc3ccc(S(C)(=O)=O)cc3)cn1)C2            1 (yes)

---

Molecular target: Glucose-dependent insulinotropic receptor (Homo sapiens)
Sequence (Q8TDV5 whole entry): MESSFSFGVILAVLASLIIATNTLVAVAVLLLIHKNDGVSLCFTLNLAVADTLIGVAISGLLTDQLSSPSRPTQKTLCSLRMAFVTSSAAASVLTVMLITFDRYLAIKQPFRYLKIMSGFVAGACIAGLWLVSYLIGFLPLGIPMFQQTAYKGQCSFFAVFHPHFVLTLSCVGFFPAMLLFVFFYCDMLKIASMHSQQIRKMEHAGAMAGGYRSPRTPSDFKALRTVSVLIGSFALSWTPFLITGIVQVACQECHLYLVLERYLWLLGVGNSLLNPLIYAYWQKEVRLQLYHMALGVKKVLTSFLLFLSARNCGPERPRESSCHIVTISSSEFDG
Experiment: Agonist activity at human GPR119 overexpressed in HEK293S cells assessed as change in cAMP level after 45 mins by HTRF assay
pEC50: −log10 of the molar value.
endpoint: pEC50

> print(dat)
                  compound.structure.string  value.observed
1  CC(C)c1nc(N2CCN(c3ncc(OCc4ccncc4C#N)cn3)CC2)no1            7.72
2  CC(C)c1nc(N2C3CCC2CN(c2ncc(OCc4ccncc4C#N)cn2)C3)no1            7.96
3  CC(C)(C)OC(=O)N1C2CCC1CN(c1ncc(OCc3ccncc3C#N)cn1)C2            8.40
4  N#Cc1cnccc1COc1cnc(N2CC3CCC(C2)N3C(=O)OCC(F)(F)F)nc1            8.05
5  CC(C)(C)OC(=O)N1C2CCC1CN(c1ncc(OCc3ccc(S(C)(=O)=O)cc3)cn1)C2            7.96

---

Test: Half life in rat at 2 mg/kg, iv
Format: ADME, organism-based
Parameters: dose 2 mg/kg, route intravenous
Settings: in vivo
endpoint: half-life (h)

> print(dat)
                  compound.structure.string   endpoint  endpoint.unit  value.observed
1  N#Cc1cnccc1COc1cnc(N2CC3CCC(C2)N3C(=O)OCC(F)(F)F)nc1  half-life              h             1.7
2  C[C@@H]1CN(C(=O)OCC(F)(F)F)CCN1c1ncc(OCc2ccncc2C#N)cn1  half-life              h             1.4
3  N#Cc1cnccc1COc1cnc(N2CCN(C(=O)OCC(F)(F)F)CC2)nc1  half-life              h             3.9
